The reported numbers originate from patent US11168069B2.

# system: recombinant thioredoxin reductase 1 (TrxR1) (Homo sapiens (Human), UniProt Q16881)
# Sequence (Q16881 151-649): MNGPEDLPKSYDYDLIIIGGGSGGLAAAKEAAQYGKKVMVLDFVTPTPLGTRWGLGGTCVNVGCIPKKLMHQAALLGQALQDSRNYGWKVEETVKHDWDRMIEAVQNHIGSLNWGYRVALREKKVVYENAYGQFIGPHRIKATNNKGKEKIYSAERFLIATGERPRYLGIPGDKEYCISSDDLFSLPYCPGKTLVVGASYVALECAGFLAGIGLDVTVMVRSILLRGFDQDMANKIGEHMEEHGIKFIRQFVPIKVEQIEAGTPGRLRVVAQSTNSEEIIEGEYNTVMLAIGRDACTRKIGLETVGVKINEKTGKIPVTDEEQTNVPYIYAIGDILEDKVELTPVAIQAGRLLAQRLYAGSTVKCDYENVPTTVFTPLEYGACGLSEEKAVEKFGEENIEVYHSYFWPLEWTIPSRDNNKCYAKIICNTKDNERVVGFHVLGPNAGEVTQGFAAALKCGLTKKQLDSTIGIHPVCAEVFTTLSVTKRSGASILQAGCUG
# experimentDescription: Inhibition of recombinant TrxR1 (DTNB assay)
# conditionSet: 30 nM TrxR1, 250 μM NADPH, 15 minutes incubation, O.D. 412 nm, read-out: TrxR Assay IC50
pIC50: −log10 of the molar value.
Criterion: pIC50 meeting or surpassing 6. Met: met. Not met: not met.

Example results:
>  <compound>
COc1ccc([N+](=O)[O-])c([S+]([O-])C2CCOCC2)n1 (stereo not drawn)

>  <qualitativeLabel>
not met

$$$$
>  <compound>
COc1ccc([N+](=O)[O-])c([S+]([O-])C2CCN(C(C)=O)CC2)n1 (stereo not drawn)

>  <qualitativeLabel>
not met

$$$$
>  <compound>
COc1ccc([N+](=O)[O-])c(S(=O)(=O)C2CCN(C(C)=O)CC2)n1

>  <qualitativeLabel>
met

$$$$
>  <compound>
COc1ccc([N+](=O)[O-])c(S(=O)(=O)C2CCOC2C)n1 (stereo not drawn)

>  <qualitativeLabel>
met

$$$$

Exercise: Check this compound for pIC50 at or above 6: `COc1ccc([N+](=O)[O-])c(S(=O)(=O)C2CCOCC2)n1`
Solution: met
